# Tgt: Alpha 2C adrenergic receptor (Homo sapiens)
# Construct: expressed in transfected cells
# Sequence (P18825 1-462): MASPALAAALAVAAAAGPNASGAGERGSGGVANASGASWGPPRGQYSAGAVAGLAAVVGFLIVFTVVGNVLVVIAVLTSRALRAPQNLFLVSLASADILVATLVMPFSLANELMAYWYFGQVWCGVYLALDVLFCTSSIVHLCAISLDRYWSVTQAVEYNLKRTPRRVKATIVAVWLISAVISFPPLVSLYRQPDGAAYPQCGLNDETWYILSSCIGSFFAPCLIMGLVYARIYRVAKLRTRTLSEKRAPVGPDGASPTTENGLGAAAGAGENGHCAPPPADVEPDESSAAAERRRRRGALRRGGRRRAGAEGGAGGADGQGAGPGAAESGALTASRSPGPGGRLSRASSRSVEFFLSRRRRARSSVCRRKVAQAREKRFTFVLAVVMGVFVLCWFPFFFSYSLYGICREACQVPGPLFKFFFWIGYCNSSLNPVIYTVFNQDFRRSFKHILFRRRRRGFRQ
# Assay Overview: RSAT (Receptor Selection and Amplification Technology) compound screening
# Format: cell-based
# Condition Set: relative efficacy compared to a standard full agonist

- Test Smiles: "Clc1c(N=C2NCCN2)cnc2cccnc12"
  Intrinsic Activity (efficacy), Alpha 2C: "(0.95)"
- Test Smiles: "c1ccc2c(N=C3NCCN3)ccnc2c1"
  Intrinsic Activity (efficacy), Alpha 2C: "(0.95)"

---

# Tgt: Alpha 2C adrenergic receptor (Homo sapiens, UniProt P18825)
# Assay Overview: RSAT (Receptor Selection and Amplification Technology) compound screening
# Condition Set: cells expressing the alpha 2C adrenergic receptor, receptor-mediated growth response, read-out: Intrinsic Activity EC50, Alpha 2C
Some molecules, each annotated with its measured pEC50.
In textbook form, pEC50 equals minus log to base ten of the concentration in mol/L.

Below, each entry is followed by its recorded pEC50 result.
- Test Smiles: "Cc1c(N=C2NCCN2)cnc2nccnc12"
  pEC50: 6.51
- Test Smiles: "Clc1c(N=C2NCCN2)cnc2ccccc12"
  pEC50: 6.43
- Test Smiles: "Clc1c(N=C2NCCN2)cnc2cccnc12"
  pEC50: 7.68

# input molecule: Cc1c(N=C2NCCN2)cnc2ccccc12 ; wanted: its pEC50
5.78

Moving on to the next molecule: c1ccc2c(N=C3NCCN3)ccnc2c1
7.76

Moving on to the next molecule: c1cnc2ncc(N=C3NCCN3)cc2n1
5.34

Moving on to the next molecule: Brc1c(N=C2NCCN2)cnc2ccccc12
5.82
